settings: in ethanol, 327.9 K

- molecular string: "c1ccc(P(c2ccccc2)c2ccccc2)cc1"
  solubility (mole fraction): 0.0385

* * *

Listing of entries alongside the reported solubility (mole fraction).
conditions: in water, 303.15 K

- molecular string: "O=c1ccc2ccccc2o1"
  solubility (mole fraction): 0.000319
- molecular string: "CSCC[C@H](N)C(=O)O"
  solubility (mole fraction): 0.00724
- molecular string: "NCCC(=O)N[C@@H](Cc1cnc[nH]1)C(=O)O"
  solubility (mole fraction): 0.0249
- molecular string: "N[C@@H](Cc1cnc[nH]1)C(=O)O"
  solubility (mole fraction): 0.0051
- molecular string: "COc1cc(/C=C/C(=O)CC(=O)/C=C/c2ccc(O)c(OC)c2)ccc1O"
  solubility (mole fraction): "1.7e-07"
- molecular string: "CC1(C)S[C@@H]2[C@H](N)C(=O)N2[C@H]1C(=O)O"
  solubility (mole fraction): 0.000226
- molecular string: "N[C@@H](C(=O)O)c1ccc(O)cc1"
  solubility (mole fraction): 0.00224

* * *

settings: in ethanol, 323.15 K
endpoint name: solubility (mole fraction)

- molecular string: "Nc1cc(Cl)nnc1Cl"
  endpoint name: "solubility (mole fraction)"
  test value: 0.024

* * *

settings: in water, 277 K

- molecular string: "C1CN2CN3CCN(CN1C3)C2"
  solubility (mole fraction): 0.0925

* * *

settings: in water, 275 K

- molecular string: "C1CN2CN3CCN(CN1C3)C2"
  solubility (mole fraction): 0.0905

* * *

settings: in THF, 318.15 K
endpoint name: solubility (mole fraction)

- molecular string: "O=c1[nH]cc(F)c(=O)[nH]1"
  test value: 0.0012

* * *

conditions: in 1,4-dioxane, 303.2 K

- compound: "CC(=O)N1CCN(c2ccc(OC[C@@H]3CO[C@@](Cn4ccnc4)(c4ccc(Cl)cc4Cl)O3)cc2)CC1 (racemic)"
  solubility (mole fraction): 0.00983

* * *

conditions: in ethanol, 303.2 K
endpoint name: solubility (mole fraction)

- molecule: "Clc1ccc(-c2c3nc(c(-c4ccc(Cl)cc4)c4ccc([nH]4)c(-c4ccc(Cl)cc4)c4nc(c(-c5ccc(Cl)cc5)c5ccc2[nH]5)C=C4)C=C3)cc1"
  test value: "1.63e-06"
- molecule: "C1=Cc2nc1c(-c1ccccc1)c1ccc([nH]1)c(-c1ccccc1)c1nc(c(-c3ccccc3)c3ccc([nH]3)c2-c2ccccc2)C=C1"
  test value: "1.76e-06"
- molecule: "CC(=O)N1CCN(c2ccc(OC[C@@H]3CO[C@@](Cn4ccnc4)(c4ccc(Cl)cc4Cl)O3)cc2)CC1 (racemic)"
  test value: 0.00434
- molecule: "C[C@@H]1CC[C@H]2[C@@H](C)C(=O)O[C@@H]3O[C@@]4(C)CC[C@@H]1[C@]32OO4"
  test value: 0.00297

* * *

settings: in transcutol, 308.2 K
Listing of entries alongside the reported solubility (mole fraction).
endpoint name: solubility (mole fraction)

- compound: "O=C1NC(=O)C(c2ccccc2)(c2ccccc2)N1"
  test value: 0.00151
- compound: "CC(=O)N1CCN(c2ccc(OC[C@@H]3CO[C@@](Cn4ccnc4)(c4ccc(Cl)cc4Cl)O3)cc2)CC1 (racemic)"
  test value: 0.0189

* * *

conditions: in water, 328.45 K
endpoint name: solubility (mole fraction)

- molecular string: "Nc1ccc(Cl)nn1"
  endpoint name: "solubility (mole fraction)"
  test value: 0.000747
